System: HEK293T
Experiment: qHTS assay to identify novel small-molecules to repurpose for Merkel cell carcinoma treatment (AID 1296009); also: nearly all actives have a fitted effect of over 60% in size
Conditions: MCC and control cell lines, CellTiter-Glo viability, 72 h; at 44.8 µM (top of the series) unless noted
Results filed as inconclusive are left out. The source made the active and inactive calls. Calls follow the shape of the dose curve; as a rule, active = well fitted inhibition curve with a large enough effect; inconclusive = small, poorly fitted or top-dose-only effect; inactive = flat fitted curve, though single readings scatter.
reported_endpoint: outcome

{"columns": ["compound", "outcome"],
 "data": [
  ["NS(=O)(=O)c1cc2c(cc1Cl)CN(C1CCCCC1)C2=O", "inactive"],
  ["CC(=O)OCC(=O)[C@@]1(O)[C@H](OC(C)=O)C[C@H]2[C@@H]3CCC4=CC(=O)C=C[C@]4(C)[C@@]3(F)[C@@H](O)C[C@@]21C", "inactive"],
  ["CCOC(=O)C(O)c1ccccc1 (stereo not drawn)", "inactive"],
  ["CCCCOCCOC(=O)c1cccnc1", "inactive"],
  ["COC(=O)c1cc(Cl)ccc1OC", "inactive"]
]}

Parameter requested: outcome. Apply to each item below.
1. CCOC(=O)NNc1ccc(N(CC)CC(C)O)nn1 (stereo not drawn)
2. CC(C)(C)C(=O)OCOC(=O)C1N2C(=O)CC2S(=O)(=O)C1(C)C (stereo not drawn)
3. Oc1ccccc1-c1nnco1

### Response
inactive
inactive
inactive

Give one value of outcome per listed compound.
1. O=C1CC(c2ccc(Cl)cc2)CC(=O)N1
2. CNC(=O)c1cnn(-c2nc(N)c3ncn([C@@H]4O[C@H](CO)[C@@H](O)[C@H]4O)c3n2)c1
3. O=C(CCOCCOCCOCCOCCC(=O)Nc1c(I)cc(I)c(C(=O)O)c1I)Nc1c(I)cc(I)c(C(=O)O)c1I
4. CC(NC(CCc1ccccc1)C(=O)O)C(=O)N1C(=O)N(C)CC1C(=O)O (stereo not drawn)
5. CN1CCN(N)CC1
6. CCOC(=O)c1ccc(O)c(O)c1
7. CN1N=C(C(N)=O)CCC1=O
8. Cc1oc(-c2ccccc2)nc1CCC(=O)c1ccc(CC2SC(=O)NC2=O)cc1 (stereo not drawn)

### Response
1. inactive
2. inactive
3. inactive
4. inactive
5. inactive
6. inactive
7. inactive
8. inactive

Provide outcome values for the following items, in order.
1. CC(=O)CC/C=C(\C)CC/C=C(\C)CC/C=C(\C)CCC=C(C)C
2. CC(C)NC(=O)c1ccc(C=O)cc1
3. COc1cc(C(=O)OC(COCCC(C)C)CN2CCOCC2)cc(OC)c1OC (stereo not drawn)
4. CC(C)C(=O)OCc1cccc(OC(=O)[C@@H]2N3C(=O)[C@@H](NC(=O)Cc4ccccc4)[C@H]3SC2(C)C)c1

### Response
1. inactive
2. inactive
3. inactive
4. inactive

Respectfully, I request outcome for each entry included below.
1. CC(=O)O[C@@H]1CC2C3CCc4cc(OC(=O)c5ccccc5)ccc4C3CCC2(C)[C@H]1OC(C)=O (stereo partly drawn)
2. O=C(O)CCCC[P+](c1ccccc1)(c1ccccc1)c1ccccc1
3. COC(=O)/C=C(/C)N

### Response
["inactive", "inactive", "inactive"]

---

Tested on: SKOV3
Assay: Primary qHTS to identify gynecologic anti-cancer compounds using libraries of approved drugs and bioactive compounds (AID 1345084); also: nearly all actives have a fitted effect of over 55% in size
Settings: Gynecologic cancer cell panel viability, ATPlite luminescence, 48 h; series mostly up to 57.5 µM
Inconclusive results are not listed. Active and inactive are the calls of the source. The call rests on the fitted dose curve; in most records, active means well fitted cell-killing curve with a large enough effect; inconclusive means small, poorly fitted or top-dose-only effect, or effect the other way; inactive means flat fitted curve, though single readings scatter.
reported_endpoint: outcome

{"columns": ["compound", "reported_measurement"],
 "data": [
  ["O=C(O)Cn1cnnn1", "inactive"],
  ["N[C@@H](Cc1cc(I)c(O)c(I)c1)C(=O)O", "inactive"],
  ["Cc1cccc(C)c1NC(=O)c1cc(S(N)(=O)=O)c(Cl)cc1O", "inactive"],
  ["CCOC(=O)C(O)c1ccccc1 (configuration not stated)", "inactive"],
  ["Cc1cc(C(C)(C)C)c(O)c(C(C)(C)C)c1", "inactive"],
  ["CCc1cc2cc(OC)c(OC)cc2c(Cc2ccccc2)n1", "inactive"]
]}

We now examine a further compound.
### Prompt Item NC(=O)NC1N=C([O][Al])NC1=O (configuration not stated) with SKOV3 - outcome?
### Response inactive
